B1: Chromodomain-helicase-DNA-binding protein 4, residues 365 to 417; numbered along this chain, Q14839 (parent)
chain: YETDHQDYCEVCQQGGEIILCDTCPRAYHMVCLDPDMEKAPEGKWSCPHCEKE

# Variants of: B1
# PROTOCOL: abundance fitness (aPCA) (normalised: wild type 0, dead -1); higher = more abundant; growth selection in yeast, the domain comes from the species named
# ASSAY CONTEXT: Homo sapiens
The label depends only on abundance fitness: true if it is at least -0.3, false if it is smaller.

Would you please look over these solved cases?
VARIANT DESIGNATION: K39R
CLASS: true

VARIANT DESIGNATION: K39H
CLASS: true

VARIANT DESIGNATION: C24M
CLASS: false

VARIANT DESIGNATION: L20R
CLASS: true

VARIANT DESIGNATION: D7H
CLASS: false

# bool: abundance fitness of A27L >= -0.3
true

Test whether the variant C12D records abundance fitness of -0.3 or higher.
false

I'd appreciate it if you could say whether Q13F has abundance fitness at least equal to -0.3.
true

Identify whether the reported abundance fitness of the following variant is -0.3 or greater: H5M
true

// inclusive: abundance fitness at least -0.3? input: P25N
true
